Attribution: patent US20210275641A1

Molecular target: T1, human high affinity trimeric IL-2 receptor (CD25/CD122/CD132) (human, UniProt P01589 22-272; P14784 27-551; P31785 23-369)
T1 sequence 1: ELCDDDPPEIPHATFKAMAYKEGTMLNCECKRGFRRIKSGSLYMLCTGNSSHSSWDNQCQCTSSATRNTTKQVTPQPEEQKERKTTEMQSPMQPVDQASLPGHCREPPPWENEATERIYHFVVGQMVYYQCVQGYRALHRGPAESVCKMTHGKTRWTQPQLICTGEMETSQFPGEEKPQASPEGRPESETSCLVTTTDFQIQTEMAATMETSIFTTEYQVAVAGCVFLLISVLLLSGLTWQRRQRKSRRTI
T1 sequence 2: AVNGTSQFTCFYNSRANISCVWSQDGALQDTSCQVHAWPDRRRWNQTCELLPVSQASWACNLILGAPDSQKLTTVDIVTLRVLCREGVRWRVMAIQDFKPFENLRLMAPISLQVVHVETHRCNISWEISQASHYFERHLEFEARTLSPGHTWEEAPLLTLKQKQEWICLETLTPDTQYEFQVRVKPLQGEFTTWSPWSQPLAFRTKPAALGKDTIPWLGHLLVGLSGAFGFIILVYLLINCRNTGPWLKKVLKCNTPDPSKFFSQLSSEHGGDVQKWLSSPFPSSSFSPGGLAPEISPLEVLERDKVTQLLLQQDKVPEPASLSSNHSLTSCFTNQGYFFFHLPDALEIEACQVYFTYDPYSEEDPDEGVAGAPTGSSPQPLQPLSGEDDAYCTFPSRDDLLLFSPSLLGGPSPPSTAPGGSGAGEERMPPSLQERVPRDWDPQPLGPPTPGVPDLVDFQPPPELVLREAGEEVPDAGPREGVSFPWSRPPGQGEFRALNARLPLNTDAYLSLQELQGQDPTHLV
T1 sequence 3: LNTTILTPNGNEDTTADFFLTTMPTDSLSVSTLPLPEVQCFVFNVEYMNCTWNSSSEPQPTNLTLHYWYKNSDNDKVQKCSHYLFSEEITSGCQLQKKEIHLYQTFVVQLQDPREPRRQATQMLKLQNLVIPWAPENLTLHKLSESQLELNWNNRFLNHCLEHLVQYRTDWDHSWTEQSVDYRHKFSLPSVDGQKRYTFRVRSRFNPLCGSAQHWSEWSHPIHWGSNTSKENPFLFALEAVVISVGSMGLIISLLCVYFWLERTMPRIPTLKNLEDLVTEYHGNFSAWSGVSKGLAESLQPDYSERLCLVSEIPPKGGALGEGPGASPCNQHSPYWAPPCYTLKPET
Assay: cell-based or functional assay
measurement label: pSTAT5 ratio YT CD25/YT, dilution factor 32, upper table

P: AEH (ligand) cytokine: APTSSSTKKTQLQLEHLALDLEMILNGINNYKNPKLTRMLTFKFYMPKKATELKHLQCLEEELKPLEEVLNLAQSKNFHLRPRDLISNINVIVLELKGSETTFMCEYADETATIVEFLNRWITFCHSIISTLT
Q: VEH (ligand) cytokine: APTSSSTKKTQLQLEHLVLDLEMILNGINNYKNPKLTRMLTFKFYMPKKATELKHLQCLEEELKPLEEVLNLAQSKNFHLRPRDLISNINVIVLELKGSETTFMCEYADETATIVEFLNRWITFCHSIISTLT
Query :: Could you determine which record has the numerically smaller pSTAT5 ratio YT CD25/YT, dilution factor 32, upper table? Candidates: P and Q Reply briefly: the label of your chosen item.
Result :: Q
(Q: 6.3, P: 14.1)

I: GEH (ligand) cytokine: APTSSSTKKTQLQLEHLGLDLEMILNGINNYKNPKLTRMLTFKFYMPKKATELKHLQCLEEELKPLEEVLNLAQSKNFHLRPRDLISNINVIVLELKGSETTFMCEYADETATIVEFLNRWITFCHSIISTLT
II: hIL2 mutein REK (L18R, Q22E, Q126K) (ligand) APTSSSTKKTQLQLEHLRLDLEMILNGINNYKNPKLTRMLTFKFYMPKKATELKHLQCLEEELKPLEEVLNLAQSKNFHLRPRDLISNINVIVLELKGSETTFMCEYADETATIVEFLNRWITFCKSIISTLT
Query :: Task for the reader: decide whether I or II has the larger pSTAT5 ratio YT CD25/YT, dilution factor 32, upper table. Pick one and reply with its label.
Result :: I
(I: 16.2, II: 7.7)
